# METHOD_DESCRIPTION: log P by HPLC
# Format: physicochemical
# DETAILS: EEC directive 79/831 Annex V. A8 by HPLC (gradient method, acetonitrile/0.1% aqueous phosphoric acid)
logP of 3 or higher: satisfied. Under 3: not satisfied.

Cc1nc2nc(Cl)c(-c3ccccc3F)c(NC3CC(C(F)(F)F)CC(C(F)(F)F)C3)n2n1 (stereo not shown) [compound 399] :: satisfied
Cc1nc2nc(Cl)c(-c3c(F)cccc3F)c(N3CCC4(CC3)OCCO4)n2n1 [compound 309] :: not satisfied
CC(C)CNc1c(-c2ccccc2Cl)c(Cl)nc2nc(C3CC3)nn12 [compound 492] :: satisfied
Cc1nc2nc(Cl)c(-c3ccccc3F)c(NOC(C)(C)C)n2n1 [compound 374] :: not satisfied
Cc1nc2nc(Cl)c(-c3ccc(F)cc3F)c(NC(C)CC(C)C)n2n1 (stereo not shown) [compound 301] :: satisfied
Fc1cc(F)c(-c2c(Cl)nc3nc(C4CC4)nn3c2N2CCCC2)c(F)c1 [compound 472] :: satisfied
Cc1nc2nc(Cl)c(-c3c(F)cccc3Cl)c(N3CC=CCC3)n2n1 [compound 265] :: satisfied
Cc1nc2nc(Cl)c(-c3ccccc3F)c(NC3CCCC3)n2n1 [compound 385] :: satisfied
Cc1nc2nc(Cl)c(-c3c(F)cccc3F)c(NCC(C)C)n2n1 [compound 328] :: not satisfied
C=C(C)CN(C)c1c(-c2c(F)cc(F)cc2F)c(Cl)nc2nc(C3CC3)nn12 [compound 469] :: satisfied
COC(=O)C1CCN(c2c(-c3ccc(F)cc3F)c(Cl)nc3nc(C)nn23)CC1 [compound 292] :: not satisfied
CCCN(CC1CCCO1)c1c(-c2c(F)cccc2F)c(Cl)nc2nc(C)nn12 (stereo not shown) [compound 347] :: satisfied
CCCCN(CC)c1c(-c2c(F)cccc2F)c(Cl)nc2nc(C)nn12 [compound 344] :: satisfied
C=C(C)CNc1c(-c2c(F)cccc2Cl)c(Cl)nc2nc(C3CC3)nn12 [compound 483] :: satisfied
Cc1nc2nc(Cl)c(-c3c(F)cccc3F)c(N(O)C(C)C)n2n1 [compound 426] :: not satisfied
Fc1ccc(-c2c(Cl)nc3nc(C4CC4)nn3c2N2CCC(F)CC2)c(F)c1 [compound 513] :: satisfied
COCCN(C)c1c(-c2c(F)cc(F)cc2F)c(Cl)nc2nc(C3CC3)nn12 [compound 468] :: satisfied
Cc1nc2nc(Cl)c(-c3ccccc3F)c(NOCc3cc(Cl)cc(Cl)c3)n2n1 [compound 364] :: satisfied
Cc1nc2nc(Cl)c(-c3ccc(F)cc3F)c(NC3CCC(C(F)(F)F)CC3)n2n1 (stereo not shown) [compound 409] :: satisfied
CCC(C)Nc1c(-c2c(F)cccc2Cl)c(Cl)nc2nc(C)nn12 (stereo not shown) [compound 264] :: satisfied
Fc1cccc(Cl)c1-c1c(Cl)nc2nc(C3CC3)nn2c1NCC1CC1 [compound 482] :: satisfied
Clc1ccccc1-c1c(Cl)nc2nc(C3CC3)nn2c1N1CCCCO1 [compound 484] :: satisfied

###

# METHOD_DESCRIPTION: log P by HPLC
# Type: physicochemical
# DETAILS: HPLC, gradient method, acetonitrile/0.1% aqueous phosphoric acid; EEC directive 79/831 Annex V. A8
Listing of entries alongside the reported logP.
MEASUREMENT_KIND: logP

CCc1nc2nc(Cl)c(-c3c(F)cc(F)cc3F)c(NNC(C)C)n2n1 :: 3.05
CC1CCN(c2c(-c3ccc(F)cc3Cl)c(Cl)nc3nc(C4CC4)nn23)CC1 :: 4.82
Cc1nc2nc(Cl)c(-c3c(F)cc(F)cc3F)c(NC(C)(C)C(F)(F)F)n2n1 :: 3.7
CC(C)C(C)Nc1c(-c2ccc(Cl)cc2Cl)c(Cl)nc2nc(C3CC3)nn12 (single isomer, unassigned) [compound 757] :: 4.72
Cc1nc2nc(Cl)c(-c3c(F)cc(F)cc3F)c(N3CC(C)OC(C)C3)n2n1 (stereo not shown) :: 3
CCC(C)ONc1c(-c2c(F)cccc2F)c(Cl)nc2nc(C)nn12 (stereo not shown) :: 2.78
CC(Nc1c(-c2ccc(Cl)cc2Cl)c(Cl)nc2nc(C3CC3)nn12)C(F)(F)F (single isomer, unassigned) [compound 710] :: 4.12

Data origin: patent US7186831B2
